Origin of the recorded values: patent US11014941B2

biological target: Influenza PB2 (Influenza A virus, UniProt P03428)
Sequence (P03428 whole entry, looked up): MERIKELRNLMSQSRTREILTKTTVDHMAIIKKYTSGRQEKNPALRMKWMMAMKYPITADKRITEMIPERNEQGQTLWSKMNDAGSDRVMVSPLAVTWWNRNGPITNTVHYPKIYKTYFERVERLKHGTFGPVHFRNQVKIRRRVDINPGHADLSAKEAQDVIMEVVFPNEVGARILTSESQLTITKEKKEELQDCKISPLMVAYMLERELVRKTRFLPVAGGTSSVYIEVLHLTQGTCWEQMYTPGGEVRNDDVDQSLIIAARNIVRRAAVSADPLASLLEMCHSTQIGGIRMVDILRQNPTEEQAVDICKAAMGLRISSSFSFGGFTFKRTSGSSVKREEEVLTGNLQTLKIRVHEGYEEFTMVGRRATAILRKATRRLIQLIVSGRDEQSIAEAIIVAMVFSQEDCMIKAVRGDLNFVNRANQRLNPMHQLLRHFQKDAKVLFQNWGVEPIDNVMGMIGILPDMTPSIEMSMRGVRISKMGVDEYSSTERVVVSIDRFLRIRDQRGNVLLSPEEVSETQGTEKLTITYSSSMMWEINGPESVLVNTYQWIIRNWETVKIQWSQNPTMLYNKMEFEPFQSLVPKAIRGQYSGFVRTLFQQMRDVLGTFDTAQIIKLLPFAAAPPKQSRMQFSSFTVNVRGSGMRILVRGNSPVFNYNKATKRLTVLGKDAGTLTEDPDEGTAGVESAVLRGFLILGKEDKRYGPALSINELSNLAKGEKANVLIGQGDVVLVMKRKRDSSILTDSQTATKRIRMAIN
Kindly state IC50 for each of the entries shown.

Task item: Could you share what IC50 was measured for O=C(O)[C@H]1CCCC1n1ccc2cnc(-c3c[nH]c4ncc(F)cc34)nc21 (single isomer, unassigned) [Compound B22] , tested on Influenza PB2 (Influenza A virus, UniProt P03428)?
Reply: 1 to 10 µM

Task item: Now the compound O=C(O)[C@H]1C2CCC(CC2)C1n1cc(Cl)c2cnc(-c3c[nH]c4ncc(F)cc34)nc21 (single isomer, unassigned) [Compound B132]
Reply: < 1 µM

Task item: Now the compound O=C(O)[C@@H]1C2CCC(CC2)[C@H]1n1cc(-c2ccncc2)c2cnc(-c3c[nH]c4ncc(F)cc34)nc21
Reply: 1 to 10 µM

Task item: Now the compound CC(Cn1cc(-c2c[nH]c3ncc(F)cc23)c2cncnc21)C(=O)O (centres unmarked)
Reply: 10 to 100 µM

Task item: Now the compound CCOC(=O)[C@@H]1C2CCC(CC2)[C@H]1n1cc(C(C)C)c2cnc(-c3c[nH]c4ncc(F)cc34)nc21
Reply: 10 to 100 µM
